Measured values drawn from paper PMC6979384 for this set.

Test system: ING1
EXPERIMENT_DESCRIPTION: Histone peptide microarray
Format: binding, human
CONDITIONS_USED: ING1, GST-tagged; arrays performed twice, n of 4
Where no end group is shown, it is not given here. [ ]: non-standard residue; d: D form. Arg(Me2a) = CN(C)C(=N)NCCC[C@H](N)C(=O)O; pS = N[C@@H](COP(=O)(O)O)C(=O)O
Class Condition met: Array Heatmap value (peptide array binding signal) at least 0.5. Class Condition not met: Array Heatmap value (peptide array binding signal) below 0.5.

[
  {
    "SUBSTANCE": "H2AX (132-142): H2AX 132-142 (GKKATQASQEY; UniProt P16104 133-143, looked up, fragment)",
    "CAT": "Condition met"
  },
  {
    "SUBSTANCE": "H2A.Z K4ac + K8ac + K12ac (1-19) (N-ac): H2AZ 1-19 (Ac-AGGKAGKDSGKAKTKAVSR; not fully specified (residue 4); UniProt P0C0S5 2-20, looked up, fragment)",
    "CAT": "Condition met"
  },
  {
    "SUBSTANCE": "H2AS1p + K5ac: H2A 1-17 ([pS]GRGK(Ac)QGGKARAKAKTR; UniProt P0C0S8 2-18, looked up, fragment)",
    "CAT": "Condition not met"
  }
]

(Q) Does Array Heatmap value (peptide array binding signal) meet or surpass 0.5 for H2AS1p + R3me2a + K5ac: H2A 1-17 ([pS]G[Arg(Me2a)]GK(Ac)QGGKARAKAKTR; UniProt P0C0S8 2-18, looked up, fragment) ?
(A) Condition met

(Q) Exam item: decide whether the reported Array Heatmap value (peptide array binding signal) for Myc-Tag: 1-10 (ILKKATAYIL; Myc epitope tag; UniProt P01106 410-419, looked up, fragment) is at least 0.5.
(A) Condition met

* * *

Tested on: PHF2
EXPERIMENT_DESCRIPTION: Histone peptide microarray
Type: binding, human
CONDITIONS_USED: PHF2, GST-tagged; arrays performed twice, n of 4
Where no end group is shown, it is not given here. [ ]: non-standard residue; d: D form. Arg(Me2a) = CN(C)C(=N)NCCC[C@H](N)C(=O)O; pS = N[C@@H](COP(=O)(O)O)C(=O)O
substances and their reported Array Heatmap value (peptide array binding signal)
Write the value as a bare number.

The following substances have reported results that may help.
[
  {
    "SUBSTANCE": "H2AS1p + K5ac: H2A 1-17 ([pS]GRGK(Ac)QGGKARAKAKTR; UniProt P0C0S8 2-18, looked up, fragment)",
    "VALUE_OBSERVED": 0.5004
  },
  {
    "SUBSTANCE": "H2AX (S139p): H2AX 132-142 (GKKATQA[pS]QEY; UniProt P16104 133-143, looked up, fragment)",
    "VALUE_OBSERVED": 0.4467
  },
  {
    "SUBSTANCE": "H2AS1p + R3me2a + K5ac: H2A 1-17 ([pS]G[Arg(Me2a)]GK(Ac)QGGKARAKAKTR; UniProt P0C0S8 2-18, looked up, fragment)",
    "VALUE_OBSERVED": 0.5212
  }
]

Let us examine a further case.
(Q) Provide Array Heatmap value (peptide array binding signal) value for the following substance: H2AR3me2a + K5ac: H2A 1-17 (SG[Arg(Me2a)]GK(Ac)QGGKARAKAKTR; UniProt P0C0S8 2-18, looked up, fragment)
(A) 0.5234

* * *

Tested on: MLL5
EXPERIMENT_DESCRIPTION: Histone peptide microarray
Format: binding, human
CONDITIONS_USED: MLL5, GST-tagged; arrays performed twice, n of 4
Where no end group is shown, it is not given here. [ ]: non-standard residue; d: D form. Arg(Me2a) = CN(C)C(=N)NCCC[C@H](N)C(=O)O; pS = N[C@@H](COP(=O)(O)O)C(=O)O
READOUT_LABEL: Array Heatmap value (peptide array binding signal)
Could you respond with only the numeric value?

For orientation, consider the following solved cases.
[
  {
    "SUBSTANCE": "H2AS1p + R3me2a + K5ac: H2A 1-17 ([pS]G[Arg(Me2a)]GK(Ac)QGGKARAKAKTR; UniProt P0C0S8 2-18, looked up, fragment)",
    "VALUE_OBSERVED": 0.5765
  },
  {
    "SUBSTANCE": "H2AR3me2a + K5ac: H2A 1-17 (SG[Arg(Me2a)]GK(Ac)QGGKARAKAKTR; UniProt P0C0S8 2-18, looked up, fragment)",
    "VALUE_OBSERVED": 0.5527
  },
  {
    "SUBSTANCE": "Myc-Tag: 1-10 (ILKKATAYIL; Myc epitope tag; UniProt P01106 410-419, looked up, fragment)",
    "VALUE_OBSERVED": 0.5446
  }
]

(Q) Look up and report measured Array Heatmap value (peptide array binding signal) for this entry: H2A.Z K4ac + K8ac + K12ac (1-19) (N-ac): H2AZ 1-19 (Ac-AGGKAGKDSGKAKTKAVSR; not fully specified (residue 4); UniProt P0C0S5 2-20, looked up, fragment)
(A) 0.5838

(Q) Report Array Heatmap value (peptide array binding signal) for H2A.Z (1-19) (N-ac): H2AZ 1-19 (Ac-AGGKAGKDSGKAKTKAVSR; UniProt P0C0S5 2-20, looked up, fragment)
(A) 0.5006

(Q) State its Array Heatmap value (peptide array binding signal): H4K12ac + KQ5,8,16,20: H4 1-23 (SGRGQGGQGLGK(Ac)GGAQRHRQVLR; UniProt P62805 2-24, looked up, variant K5Q K8Q K16Q K20Q)
(A) 0.5826

* * *

Test system: CHD5 (PCC)
EXPERIMENT_DESCRIPTION: Histone peptide microarray
Assay type: binding, human
CONDITIONS_USED: CHD5 (PCC), GST-tagged; arrays performed twice, n of 4
Where no end group is shown, it is not given here. [ ]: non-standard residue; d: D form. pS = N[C@@H](COP(=O)(O)O)C(=O)O
READOUT_LABEL: Array Heatmap value (peptide array binding signal)
I'd appreciate a reply containing only the number, no unit.

Below are worked cases with known answers.
[
  {
    "SUBSTANCE": "H2AX (S139p): H2AX 132-142 (GKKATQA[pS]QEY; UniProt P16104 133-143, looked up, fragment)",
    "TESTED_SYSTEM": "CHD5 (PCC)",
    "VALUE_OBSERVED": 0.7872
  },
  {
    "SUBSTANCE": "H2A.Z (1-19) (N-ac): H2AZ 1-19 (Ac-AGGKAGKDSGKAKTKAVSR; UniProt P0C0S5 2-20, looked up, fragment)",
    "TESTED_SYSTEM": "CHD5 (PCC)",
    "VALUE_OBSERVED": 0.7354
  },
  {
    "SUBSTANCE": "H4K12ac + KQ5,8,16,20: H4 1-23 (SGRGQGGQGLGK(Ac)GGAQRHRQVLR; UniProt P62805 2-24, looked up, variant K5Q K8Q K16Q K20Q)",
    "TESTED_SYSTEM": "CHD5 (PCC)",
    "VALUE_OBSERVED": 0.8241
  }
]

Please find the next substance below.
(Q) Tell us which Array Heatmap value (peptide array binding signal) value is on record for H2A.Z (1-19): H2AZ 1-19 (AGGKAGKDSGKAKTKAVSR; UniProt P0C0S5 2-20, looked up, fragment)
(A) 0.7976

* * *

System: PHF8
EXPERIMENT_DESCRIPTION: Histone peptide microarray
Assay type: binding, human
CONDITIONS_USED: PHF8, GST-tagged; arrays performed twice, n of 4
Where no end group is shown, it is not given here.
READOUT_LABEL: Array Heatmap value (peptide array binding signal)
Format: numeric value only, no unit, no commentary.

Example substances with recorded Array Heatmap value (peptide array binding signal):
[
  {
    "SUBSTANCE": "H2A.Z K4ac + K8ac + K12ac (1-19) (N-ac): H2AZ 1-19 (Ac-AGGKAGKDSGKAKTKAVSR; not fully specified (residue 4); UniProt P0C0S5 2-20, looked up, fragment)",
    "TESTED_SYSTEM": "PHF8",
    "VALUE_OBSERVED": 0.4227
  },
  {
    "SUBSTANCE": "Myc-Tag: 1-10 (ILKKATAYIL; Myc epitope tag; UniProt P01106 410-419, looked up, fragment)",
    "TESTED_SYSTEM": "PHF8",
    "VALUE_OBSERVED": 0.3567
  }
]

Alright, here's another substance for you.
(Q) Report measured Array Heatmap value (peptide array binding signal); entry is H2AX (132-142): H2AX 132-142 (GKKATQASQEY; UniProt P16104 133-143, looked up, fragment)
(A) 0.3348
